RECORDED_ENDPOINT: melting point

Use these answered entries as a reference point.
INSERT INTO measurements (compound, measured) VALUES
  ('Fc1ccccc1-c1nc2ncccc2o1', '126 to 127 °C'),
  ('COc1cccc(Oc2ccccc2C(=O)O)c1', '129 to 131 °C'),
  ('COc1ccc(-c2nc3cc(Cl)c(Cl)cc3n2C(=O)OCc2ccccc2)cc1[N+](=O)[O-]', '212 to 214 °C'),
  ('O=C(Nc1cc2nc(-c3ccc(C(=O)C45CC6CC(CC(C6)C4)C5)cc3)[nH]c2cn1)C12CC3CC(CC(C3)C1)C2', '265 °C');

[ask] Fill blank: measured melting point of the compound O=[N+]([O-])c1cc(Cn2cncn2)ccc1Cl is ____.
[reply] 98.9 °C

[ask] Would you kindly repeat that for O=[N+]([O-])c1cccnc1Nc1ccc2c(c1)COC2 ?
[reply] 146 to 147 °C

[ask] Would you kindly repeat that for O=C1C2CCCN2S(=O)(=O)N1CCl (stereo not given) ?
[reply] 46.5 to 47.5 °C

====

RECORDED_ENDPOINT: melting point

Use these answered entries as a reference point.
INSERT INTO results (compound, measured) VALUES
  ('CC(=O)NC(=O)N1CCSC1c1ccccc1OCCN1CCN(c2cccc(F)c2)CC1 (stereo unspecified)', '142 to 143 °C'),
  ('COc1cc(C(F)(F)F)c2[nH]c3c(c2c1)CNCC3', '140 to 144 °C'),
  ('CCN(CC)c1ccc(N(Cc2ccc(N)c(OC)c2)C(N)=O)c(C)c1', '110 to 115 °C'),
  ('CN1CCN(c2nc3sc4c(NCc5ccco5)ncnc4c3c3c2COC(C)(C)C3)CC1', '166 to 168 °C'),
  ('CC1CCC(c2ccc(OCC(=O)O)c(Cl)c2Cl)=CC1=O (stereo unspecified)', '183 to 185 °C');

[ask] Fill blank: measured melting point of the compound CC(C)N(CCC1(c2ccccn2)CCC(=O)NC1=O)C(C)C (stereo unspecified) is ____.
[reply] 101 to 102 °C

[ask] Would you kindly repeat that for O=C1Nc2ccc(Cl)cc2Cc2sccc21 ?
[reply] 264 to 266 °C

[ask] Would you kindly repeat that for COc1ccc(C(=O)CCC(=O)O)cc1NC(C)=O ?
[reply] 184 to 185 °C

[ask] Would you kindly repeat that for COc1c(S(=O)C(F)(F)F)c(C#N)nn1-c1c(Cl)cc(C(F)(F)F)cc1Cl (stereo unspecified) ?
[reply] 136 to 137 °C

[ask] Would you kindly repeat that for CCOc1nc(=O)n(C(=O)Nc2cccc(Cl)c2)s1 ?
[reply] 141 °C

====

Measured melting point accompanies every entry in the list below.

INSERT INTO measurements (molecule, measured) VALUES
  ('O=[N+]([O-])c1ccc(-c2ncnn2-c2ccccc2F)cc1', '143 to 145 °C'),
  ('N#CCCCN1CCC(Nc2nc3ccccc3n2Cc2ccc(F)cc2)CC1', '130 °C');

[ask] Fill blank: measured melting point of the molecule BrCCc1ccc([Si](c2ccccc2)(c2ccccc2)c2ccc(CCBr)cc2)cc1 is ____.
[reply] 220 °C

[ask] Would you kindly repeat that for O=CCC(c1ccccc1)c1cc(Br)ccc1OCc1ccccc1 (stereo not given) ?
[reply] 99 to 100 °C

[ask] Would you kindly repeat that for CCCN1CCc2cc(NC(=O)C(=O)N[C@H]3CCOC3O)ccc21 (stereo not given in full) ?
[reply] 120 to 122 °C

[ask] Would you kindly repeat that for CC(=O)NC[C@H]1CN(c2ccc(N3CCC(F)(CCl)CC3)c(F)c2)C(=O)O1 ?
[reply] 158 to 160 °C

[ask] Would you kindly repeat that for O=c1[nH]c2ncc(-c3ccc4[nH]cnc4c3)nc2n1CC1CCCCC1 ?
[reply] 217 to 220 °C
